experiment_notes: HepG2 cytotoxicity, primary screen, cytotoxicity control for P. falciparum antimalarial project, cell-based, ATP luminescence (AID 2303)
measurement_conditions: HepG2 viability, 24-48 h, at 10 µM, active compounds read high
Threshold 10%: inhibition strictly smaller gives T, otherwise F.

Would you kindly verify if inhibition of CCCCCN=C(N)N/N=C/c1c[nH]c2ccc(OC)cc12 is strictly less than 10%?
F

In the record for c1ccc([C@H]2CN3CCSC3=N2)cc1 , is inhibition less than 10%?
F

inhibition strictly < 10% for this compound? CCN(CC)CCCC(C)Nc1ccnc2cc(Cl)ccc12 (stereo unspecified)
F

I'd appreciate it if you could check whether Cc1ccc(O)cc1Nc1ccnc2cc(-c3ccccn3)ccc12 has inhibition smaller than 10%.
T

Take the compound CN(C)c1cc2c(Nc3ccc4nc(Cc5ccccc5)[nH]c4c3)ncnc2cn1 and say whether its inhibition is less than 10%.
F

Does the reported inhibition of NC12CC3CC(CC(C3)C1)C2 stay below 10%?
F
